Assay: AP1 Signaling Pathway (AID 357); further: on the % scale 0 is the no-effect control and ±100 the full control effect
Settings: ME-180 (cervical carcinoma) AP-1-bla reporter, EGF-induced, beta-lactamase ratio, 5 h; at 17.2 µM (top of the series) unless noted
Description: NCGC Assay Overview: Activator protein-1 (AP-1), a transcription factor, plays an important role in tumor genesis by regulating genes involved in cell proliferation, differentiation, apoptosis, and angiogenesis. AP-1 activity is induced by a complex network of signaling pathways that involves extracellular signals, such as growth factors. […] Library compounds were measured for their ability to modulate positively or negatively the action of EC50 EGF on reporter gene activity. […]
Inconclusive results are not listed. Active and inactive are the calls of the source. The call rests on the fitted dose curve; in most records, active means well fitted curve in either direction with a large enough effect (not every such curve was filed as active); inconclusive means small, poorly fitted or top-dose-only effect, or another doubt; inactive means flat fitted curve, though single readings scatter.
measurement-kind: activity change, negative = inhibition

Solved entries:
{"compound": "COC(=O)C(c1ccccc1)N1CCCCCC1 (configuration not stated)", "reported-result": "17.9% (inactive)"}
{"compound": "O=c1[nH]c(=O)n(Cc2ccccc2)c(O)c1C=NCCN1CCNCC1", "reported-result": "1.47% (inactive)"}
{"compound": "COc1ccc(-n2c(SC)nc3ccccc3c2=O)cc1", "reported-result": "0.0474% (inactive)"}
{"compound": "O=c1[nH]c(=O)n(Cc2ccco2)c(O)c1C=NCc1ccc2c(c1)OCO2", "reported-result": "-17.4% (inactive)"}

activity change, negative = inhibition reported for this compound `NCC1(c2ccc3c(c2)OCCO3)CCCC1` : 3.9% (inactive)

Noted for `O=c1[nH]c(O)c(C=NC2CCN(Cc3ccccc3)CC2)c(=O)[nH]1` : its activity change, negative = inhibition reads 5.09% (inactive)

Reported activity change, negative = inhibition ( `Nc1c(C(=O)NCc2ccco2)c2nc3ccccc3nc2n1CCN1CCCCC1` ) = 29.1% (inactive)

The recorded activity change, negative = inhibition for entry `C/C=C(\C)C(=O)O[C@@H]1C(C)=C2[C@H]([C@@H]1OC(=O)CCCCCCC)[C@@](C)(OC(C)=O)C[C@@H](OC(=O)CCC)[C@@]1(O)[C@H]2OC(=O)[C@]1(C)O` equals 19.3% [at 38 µM] (inactive)

The compound listed as `CCOc1ccccc1-n1c(O)c(C=Nc2c(C)n(C)n(-c3ccccc3)c2=O)c(=O)[nH]c1=O` has a reported activity change, negative = inhibition of -0.373% (inactive)

Record `C=CCOC(=O)C1=C(C)OC(N)=C(C#N)[C@@]12C(=O)N(CC(N)=O)c1ccccc12` . Reported activity change, negative = inhibition: 6.24% (inactive)

So for `COc1ccc2[nH]c3c(c2c1)CCN=C3C` , the logged activity change, negative = inhibition turned out to be -4.7% (inactive)

Entry `COc1ccc2c(c1)[C@]13CCCC[C@@H]1[C@H](C2)N(C)CC3` ; activity change, negative = inhibition = 12% [at 38 µM] (inactive)

activity change, negative = inhibition reported for this compound `CCCCCCn1c(O)c(C=Nc2c(C)n(C)n(-c3ccccc3)c2=O)c(=O)[nH]c1=O` : -18.8% (inactive)

The measured activity change, negative = inhibition associated with `CC1=C(C(=O)OC(C)C)[C@]2(C(=O)N(CC(N)=O)c3ccccc32)C(C#N)=C(N)O1` reads 16.8% (inactive)

GET /value?item= CCN(CC)CCCC(C)N=C(c1ccccc1)c1c(O)n(C)c(=O)n(C)c1=O (configuration not stated) &field=activity change, negative = inhibition returns -17.7% (inactive)

Entry under test: `Nc1ccc(C2(c3ccc(N)cc3)CN3CCC2CC3)cc1` . Its activity change, negative = inhibition was 7.52% (inactive)

Per the record, `C[C@H]1CCCC(=O)CCCCCc2cc(O)cc(O)c2C(=O)O1` has activity change, negative = inhibition of -29.6% (inactive)

// field: activity change, negative = inhibition; key: `COc1cccc(CN2CCN(C(=O)COc3ccc4ccccc4c3)CC2)c1` ; value = 2% (inactive)

The compound `O=P(c1ccccc1)(c1ccccc1)N1CCCCC1` showed activity change, negative = inhibition equal to -9.35% (inactive)

Record summary for CC1(C)NCCN2C(=O)CSC21 (configuration not stated) : reported activity change, negative = inhibition = 17.6% (inactive)

Reported activity change, negative = inhibition for `C=CCN1CCc2cccc3c2[C@@H]1Cc1ccc(O)c(O)c1-3` was -21.9% [at 38 µM] (inactive)

get_value(item= `O=C1CC[C@]2(O)[C@H]3Cc4ccc(O)c5c4[C@@]2(CCN3CC2CC2)[C@@H]1O5` , readout=activity change, negative = inhibition) returns 3.41% (inactive)

The recorded activity change, negative = inhibition for entry `C=CCn1c(O)c(C=NCCN(C)C)c(=O)[nH]c1=O` equals 1.63% (inactive)

These entries and their values trace back to PubChem BioAssay (NCATS).
